Value source: patent US20040073001A1

ASSAY SYSTEM: T1, GAL4-β-catenin fusion protein (GAL4 BD fused with mouse β-catenin armadillo domain, residues 128 to 683) (yeast; mouse, UniProt P04386 1-147; Q02248 128-683)
T1 construct: Bait of the yeast two-hybrid system; also called mβ-catenin arm; β-catenin arm bait plasmid
ASSAY OVERVIEW: yeast two-hybrid, β-galactosidase activity

{"columns": ["BINDER", "binding result"],
 "data": [
  ["GAL4 AD fusion of B9L partial fragment, residues 292-564 of SEQ ID NO: 2 (other, not shown: large carriers, Two-hybrid prey) PSAGTPQSQPPPLPPPPPAPGSAPPALPPEGPPEDTSQDLAPNSVGAASTGGGTGGTHPNTPTAATANNPLPPGGDPGSAPGSALLGEATPTGNGQRNLVGSEGLSKEQLEHRERSLQTLRDIERLLLRSGETEPFLKGPPGGAGEGGPPAQAPSAAQPPPSAPPGGLKKYEEPLQSMISQTQSLGGPPLEHEVPGHPQGGDMGQQMNMMMQRLGQDSLTPEQVAWRKLQEEYYEEKRRKEEQIGLHGGRPLQDMVGMGGMMGRGPPPPYHSK", "binds"],
  ["LANTAAEAVLQGRAESILAYHQQNVPRAKLDQAPKVPPTPEPLPLNT (other, not shown: large carriers, Two-hybrid prey) [GAL4 AD fusion of B9L partial fragment, residues 245-291 of SEQ ID NO: 2]", "no binding"],
  ["GAL4 AD fusion of B9L partial fragment, residues 292-439 of SEQ ID NO: 2 (other, not shown: large carriers, Two-hybrid prey; also called B9L fragment of residues 292-439) PSAGTPQSQPPPLPPPPPAPGSAPPALPPEGPPEDTSQDLAPNSVGAASTGGGTGGTHPNTPTAATANNPLPPGGDPGSAPGSALLGEATPTGNGQRNLVGSEGLSKEQLEHRERSLQTLRDIERLLLRSGETEPFLKGPPGGAGEGG", "binds"],
  ["GAL4 AD fusion of B9L partial fragment, residues 440-564 of SEQ ID NO: 2 (other, not shown: large carriers, Two-hybrid prey) PPAQAPSAAQPPPSAPPGGLKKYEEPLQSMISQTQSLGGPPLEHEVPGHPQGGDMGQQMNMMMQRLGQDSLTPEQVAWRKLQEEYYEEKRRKEEQIGLHGGRPLQDMVGMGGMMGRGPPPPYHSK", "no binding"],
  ["GAL4 AD fusion of B9L partial fragment, residues 245-439 of SEQ ID NO: 2 (other, not shown: large carriers, Two-hybrid prey) LANTAAEAVLQGRAESILAYHQQNVPRAKLDQAPKVPPTPEPLPLNTPSAGTPQSQPPPLPPPPPAPGSAPPALPPEGPPEDTSQDLAPNSVGAASTGGGTGGTHPNTPTAATANNPLPPGGDPGSAPGSALLGEATPTGNGQRNLVGSEGLSKEQLEHRERSLQTLRDIERLLLRSGETEPFLKGPPGGAGEGG", "binds"]
]}
